- Test system: NOMO1
- Procedure Summary: cell viability relative to DMSO control; higher = less cytotoxic
- Condition Notes: RPMI 5 mM glucose + 10% dialyzed FBS; 48 h; 0.000781 µM
Metric: cell viability
Respond with the figure and its unit, in that order.

Req: Which cell viability value belongs to CCN1\C=C(C(O)=O)/C(=O)C2=C1C=C(N3CCN(C)CC3)C(=C2)F ?
Resp: 123%

Req: Same question for CCC[C@@H](C=O)NC(=O)[C@H](CC(C)C)NC(=O)[C@H](CC(C)C)NC(=O)OCc1ccccc1 please.
Resp: 115%

Req: Try the molecule Cn1cc(-c2cnn3c(N)c(Br)c([C@@H]4CCCNC4)nc23)cn1
Resp: 78.7%

====

- System: P12-Ichikawa
- Procedure Summary: cell viability relative to DMSO control; higher = less cytotoxic
- Condition Notes: HPLM + 10% dialyzed FBS; 48 h; 15.4 µM
cell viability for assorted compounds

{"Compound": "CCc1cccc2c3c([nH]c12)C(CC)(CC(=O)O)OCC3 (centres undefined)", "cell viability": "99.2%"}
{"Compound": "CCCc1nc2c(C)cc(-c3nc4ccccc4n3C)cc2n1Cc1ccc(-c2ccccc2C(=O)O)cc1", "cell viability": "133%"}
{"Compound": "OC1=CC2=C(C(=O)\\C=C(/O2)C3=CC=CC=C3)C(=C1O)O", "cell viability": "9.59%"}

Req: Record lookup: for P12-Ichikawa, what cell viability belongs to O=C(O)[C@@H](c1ccc(OCc2ccc3ccccc3n2)cc1)C1CCCC1 ?
Resp: 102%

====

- Test system: NOMO1
- Procedure Summary: cell viability relative to DMSO control; higher = less cytotoxic
- Condition Notes: RPMI 5 mM glucose + 10% FBS; 48 h; 1.71 µM
Quick reference for cell viability among some compounds
// note: answer is a bare numeric in %

Example cases with answers are listed next.
{"Compound": "CN(C)/[N+]([O-])=N/Oc1cc(ON[N+](=O)N2CCN(C(=O)c3cc(Cc4n[nH]c(=O)c5ccccc45)ccc3F)CC2)c([N+](=O)[O-])cc1[N+](=O)[O-]", "Value Observed": 122}
{"Compound": "CN1C2=CC(=O)/C(=N/NC(N)=O)C=C2CC1S(=O)(=O)[O-].[Na+] (stereo not given)", "Value Observed": 117}
{"Compound": "Nc1nc(Nc2ccc([S+](N)(=O)[O-])cc2)nn1C(=O)c1c(F)cccc1F", "Value Observed": 87.2}
{"Compound": "Cc1cc(SCc2sc(-c3ccc(C(F)(F)F)cc3)nc2C)ccc1OCC(=O)O", "Value Observed": 102}

As a next step, examine the compound that follows.
Req: Query: cell viability; subject: COC(=O)Nc1ccc(-c2nc(N3CCOCC3)c3cnn(C4CCN(Cc5cccnc5)CC4)c3n2)cc1
Resp: 82.6

====

This listing pairs compounds with measured cell viability.
- Test system: NOMO1
- Procedure Summary: cell viability relative to DMSO control; higher = less cytotoxic
- Condition Notes: HPLM + 10% dialyzed FBS; 48 h; 0.569 µM
The reply should be a number in %, with the unit left off.

Observe how each entry below is paired with its result.
{"Compound": "CN1CCN(Cc2ccc(NC(=O)Nc3ccc(Oc4cc(NC(=O)C5CC5)ncn4)cc3)cc2C(F)(F)F)CC1", "Unit Symbol": "%", "Value Observed": 12}
{"Compound": "OCCNC1CCCc2c1[nH]c1ccc(-c3ccccc3)cc21 (centres undefined)", "Unit Symbol": "%", "Value Observed": 109}
{"Compound": "CN1CC/C(CC1)=C3\\c4ccccc4CC(=O)c2sccc23", "Unit Symbol": "%", "Value Observed": 153}
{"Compound": "CC(=O)Oc1cc2c(s1)CCN(C(C(=O)C1CC1)c1ccccc1F)C2.Cl (centres undefined)", "Unit Symbol": "%", "Value Observed": 116}
{"Compound": "O=C(NCCCNc1nc(Nc2cccc(NC(=O)N3CCCC3)c2)ncc1I)c1cccs1", "Unit Symbol": "%", "Value Observed": 91.5}

Req: GET /values?readout=cell viability&item= O=C(C[C@@H]1C/C=C\CCC(=O)O[C@H](c2ccccc2)CNC1=O)NCc1ccc(Cl)cc1
Resp: 133

Req: Would you mind doing CN(c1nccc(=O)[nH]1)C1CCN(c2nc3ccccc3n2Cc2ccc(F)cc2)CC1 as well?
Resp: 116

Req: What do we get for CN(CCOc1ccc(NS(C)(=O)=O)cc1)CCc1ccc(NS(C)(=O)=O)cc1 ?
Resp: 147

Req: Ok, now Cc1cccc(N(C)C(=S)Oc2ccc3ccccc3c2)c1
Resp: 123

====

- System: P12-Ichikawa
- Procedure Summary: cell viability relative to DMSO control; higher = less cytotoxic
- Condition Notes: HPLM + 10% dialyzed FBS; 48 h; 0.0211 µM
Metric: cell viability (%)
Write down the numeric answer in % and omit the unit.

Previously resolved entries follow.
{"Compound": "O=C(NCCCNc1nc(Nc2cccc(NC(=O)N3CCCC3)c2)ncc1I)c1cccs1", "Unit Symbol": "%", "cell viability": 90.9}
{"Compound": "C=CC(=O)Nc1cccc(Oc2nc(Nc3ccc(N4CCN(C)CC4)cc3OC)ncc2Cl)c1", "Unit Symbol": "%", "cell viability": 84.9}
{"Compound": "CCN1\\C=C(C(O)=O)/C(=O)C2=C1C=C(N3CCN(C)CC3)C(=C2)F", "Unit Symbol": "%", "cell viability": 107}

Req: Form field: reported cell viability of NCCCC(O)(P(=O)(O)O)P(=O)(O)O.O.O.O.[Na+]
Resp: 114

Req: Record: COc1ccccc1OCCNCC(O)COc1cccc2[nH]c3ccccc3c12 (configuration not stated)
Resp: 118

Req: Consider next the compound CC1=CC=C2\N=C/3N(CC[C@@]3(O)C(=O)C2=C1)C4=CC=CC=C4 in the same way.
Resp: 94.6

Req: Entry to check: CCCC1=N[N](C)C2=C1\N=C(/NC2=O)C3=CC(=CC=C3OCC)[S+]([O-])(=O)N4CCN(C)CC4
Resp: 88.6

Req: And for C[N]1N=CC2=C1C=C(C(=C2)OC3=CC=C(NC(=O)\C4=C\C=C(\C)N(C4=O)C5=CC=C(F)C=C5)C=C3F)C6=C[NH]N=C6 ?
Resp: 114

Req: Would you mind doing CCCNCC(O)COc1ccccc1C(=O)CCc1ccccc1 (configuration not stated) as well?
Resp: 103

Req: How about CN(C)/[N+]([O-])=N/Oc1cc(ON[N+](=O)N2CCN(C(=O)c3cc(Cc4n[nH]c(=O)c5ccccc45)ccc3F)CC2)c([N+](=O)[O-])cc1[N+](=O)[O-] ?
Resp: 112

Req: Then what about the compound O=[S+]([O-])(O)c1ccc2cc(/N=N/c3cc([S+](=O)([O-])O)c4cccnc4c3O)ccc2c1 ?
Resp: 110

====

- Test system: NOMO1
- Procedure Summary: AUC of viability dose-response curve (% viability x log10 dose units); higher = less sensitive
- Condition Notes: RPMI 5 mM glucose + 10% FBS; 48 h
Metric: AUC of viability dose-response curve

{"Compound": "O=[S+]([O-])(/N=C/c1c(O)ccc2ccccc12)c1cccs1", "AUC of viability dose-response curve": 472}
{"Compound": "C[C@@H](NCc1cc2ccccc2[nH]1)c1cccc2ccccc12", "AUC of viability dose-response curve": 428}
{"Compound": "O=C1c2c(O)cc(O)cc2O[C@H](c2cc(O)c(O)c(O)c2)[C@H]1O", "AUC of viability dose-response curve": 461}
{"Compound": "CCC(=O)OC1CCC2C3CCC/4=C/C(=O)CC[C@@]4(C)C3CC[C@]12C (some centres undefined)", "AUC of viability dose-response curve": 456}
{"Compound": "CNC(=O)c1ccc(N2C(=S)N(c3ccc(C#N)c(C(F)(F)F)c3)C(=O)C2(C)C)cc1F", "AUC of viability dose-response curve": 472}
{"Compound": "C=CC(=O)Nc1cccc(Oc2nc(Nc3ccc(N4CCN(C)CC4)cc3OC)ncc2Cl)c1", "AUC of viability dose-response curve": 355}
{"Compound": "CN(C)/[N+]([O-])=N/Oc1cc(ON[N+](=O)N2CCN(C(=O)c3cc(Cc4n[nH]c(=O)c5ccccc45)ccc3F)CC2)c([N+](=O)[O-])cc1[N+](=O)[O-]", "AUC of viability dose-response curve": 460}
{"Compound": "O=C(Nc1ccc([N+](=O)[O-])cc1Cl)c1cc(Cl)ccc1O", "AUC of viability dose-response curve": 363}

Now look at this entry.
Req: Which AUC of viability dose-response curve value is on record for O=C(O)CCNc1cc(N2CCc3ccccc3CC2)nc(-c2ccccn2)n1 ?
Resp: 456

====

- Tested on: SEM cells
- Procedure Summary: cell viability relative to DMSO control; higher = less cytotoxic
- Condition Notes: RPMI 5 mM glucose + 10% FBS; 48 h; 5.12 µM
cell viability values for the compounds below.
State the answer as a number, implicitly in %.

Req: What measured cell viability goes with COc1ccc(CC2c3cc(OC)c(OC)cc3CC[N+]2(C)CCC(=O)OCCCCCOC(=O)CC[N+]2(C)CCc3cc(OC)c(OC)cc3C2Cc2ccc(OC)c(OC)c2)cc1OC (configuration not stated) ?
Resp: 92.1

Req: // query: CCCNCC(O)COc1ccccc1C(=O)CCc1ccccc1 (configuration not stated)
Resp: 124

Req: Also COc1cccc(Nc2c(C(N)=O)cnc3c(C)cc([S+](=O)([O-])c4cccc(C(=O)N(C)C)c4)cc23)c1 , if possible.
Resp: 138

Req: How about CN1C2=CC(=O)/C(=N/NC(N)=O)C=C2CC1S(=O)(=O)[O-].[Na+] (configuration not stated) ?
Resp: 128

Req: Now this one: CCC(=O)OC1CCC2C3CCC/4=C/C(=O)CC[C@@]4(C)C3CC[C@]12C (some centres not stated)
Resp: 120

Req: // repeat for CCCCOc1ccc(CC(=O)NO)cc1 and report
Resp: 109

Req: Can you check C[N]1N=CC2=C1C=C(C(=C2)OC3=CC=C(NC(=O)\C4=C\C=C(\C)N(C4=O)C5=CC=C(F)C=C5)C=C3F)C6=C[NH]N=C6 next?
Resp: 9.63
